Biological target: T1, 4H906-AA
T1 chain: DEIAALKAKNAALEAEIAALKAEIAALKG
Test: two-hybrid library CCmax;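 further: natural log of median RNA to DNA barcode read ratio; higher means stronger binding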
Details: mean of both orientations
Quantity kind: interaction score
Would you mind answering with just the numeric figure?

Consider the following illustrative entries.
>>> quantitative_readout("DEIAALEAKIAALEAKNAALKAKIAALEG [4H317-AA]")
0.51
>>> quantitative_readout("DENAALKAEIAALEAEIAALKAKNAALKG [4H1552-AA]")
-1.18
>>> quantitative_readout("DKNAALKAEIAALKAEIAALEAKNAALEG [4H3655-AA]")
-1.03
>>> quantitative_readout("DEIAALKAENAALKAEIAALKAKIAALEG [4H717-AA]")
-1.19
>>> quantitative_readout("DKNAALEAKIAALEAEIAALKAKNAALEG [4H3343-AA]")
-1.17
>>> quantitative_readout("DEIAALEAKNAALEAKIAALKAKIAALEG [4H429-AA]")
-0.239
>>> quantitative_readout("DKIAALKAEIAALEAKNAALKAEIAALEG [4H2617-AA]")
-0.74
>>> quantitative_readout("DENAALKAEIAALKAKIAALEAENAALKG [4H1636-AA]")
-1.91

binder DEIAALEAKIAALKAENAALEAKIAALKG [4H342-AA] , interaction score observed: -1.52

binder DEIAALEAKIAALKAEIAALKAKNAALEG [4H335-AA] , interaction score observed: -1.22

binder DEIAALKAKIAALEAENAALKAEIAALKG [4H794-AA] , interaction score observed: -1.42

binder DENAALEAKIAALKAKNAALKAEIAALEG [4H1401-AA] , interaction score observed: -1.91

binder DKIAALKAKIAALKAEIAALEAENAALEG [4H2883-AA] , interaction score observed: -1.52

binder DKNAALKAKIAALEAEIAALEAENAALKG [4H3844-AA] , interaction score observed: -1.43

binder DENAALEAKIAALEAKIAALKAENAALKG [4H1324-AA] , interaction score observed: -1.42

binder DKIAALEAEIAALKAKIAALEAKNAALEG [4H2151-AA] , interaction score observed: -1.28

Ref: paper PMC10397247
